# Condition parameters: Crystal
So I've got a bunch of compounds here, and I need their Normal melting temperature values.
One number for each entry, in °C.

In the examples that follow, each entry is paired with its recorded Normal melting temperature.
1) C1CC[C@H]2CCCC[C@@H]2C1 [trans-decahydronaphthalene]; -30.44
2) C1CC[C@H]2CCCC[C@H]2C1 [cis-decahydronaphthalene]; -45.08
3) c1ccccc1; 5.44

Okay, here is my list. What is Normal melting temperature for each of these?
1. c1ccc2ccccc2c1
2. C1CCCCC1

Result block:
1. 79.99
2. 6.48
